test system: Human betaherpesvirus 5; assay: Antiviral activity against Human cytomegalovirus Towne infected in HFF assessed as inhibition of viral replication by measuring pp28 expression at 72 hrs post-infection by luciferase assay; assay type: functional, organism-based; details: Human betaherpesvirus 5, Towne
pEC50: −log10 of the molar value.
# Lookup of reported pEC50 keyed by entry

Compound	pEC50
C[C@@H]1O[C@@H](O[C@@H]2CC[C@H](O[C@@H]3CC[C@H](O[C@H]4CC[C@@]5(C)[C@H](CC[C@@H]6[C@@H]5CC[C@]5(C)[C@@H](C7=CC(=O)OC7)CC[C@]65O)C4)O[C@H]3C)O[C@H]2C)CC[C@H]1O	6.95
C[C@@H]1O[C@@H](O[C@@H]2CC[C@H](O[C@H]3CC[C@@]4(C)[C@H](CC[C@@H]5[C@@H]4CC[C@]4(C)[C@@H](C6=CC(=O)OC6)CC[C@]54O)C3)O[C@H]2C)CC[C@H]1O	7.83
C[C@@H]1O[C@@H](O[C@H]2CC[C@@]3(C)[C@H](CC[C@@H]4[C@@H]3CC[C@]3(C)[C@@H](C5=CC(=O)OC5)CC[C@]43O)C2)CC[C@H]1O [RAMNODIGIN]	8.42
C[C@H]1O[C@H](O[C@H]2CC[C@@]3(C)[C@H](CC[C@@H]4[C@@H]3CC[C@]3(C)[C@@H](C5=CC(=O)OC5)CC[C@]43O)C2)[C@@H](O)[C@@H](O)[C@@H]1O	7.58

Attribution: ChEMBL document CHEMBL3259699
